MEASURED_ON: T1, recombinant human OX40-Fc (human, UniProt P43489 29-214)
T1 construct: also called rh-OX40-Fc; human OX40 hFC (R & D systems)
T1 sequence: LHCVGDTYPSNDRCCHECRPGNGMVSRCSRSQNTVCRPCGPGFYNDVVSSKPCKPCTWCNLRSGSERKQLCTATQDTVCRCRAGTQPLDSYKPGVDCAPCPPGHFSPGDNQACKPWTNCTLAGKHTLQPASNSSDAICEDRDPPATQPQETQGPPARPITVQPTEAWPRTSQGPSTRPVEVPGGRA
ASSAY_DETAILS: ELISA, OX40-Fc coated, VHH at 0.0128 nM
Lab note: anything with OD450 at or over 0.06 counts as class 1; the rest go in class 0.

{"columns": ["BINDER", "CATEGORY"],
 "data": [
  ["pgXX88-83 (VHH, not shown: small tags and cut ends) VHH: EVQLVESGGGLVQTGDSLRLSCAALGGTPSTYAIGWFRQAAGKELQFVARITWNGDTWYADALPGRVAISRDNAKKTVYLQMNNLKPEDTAEYICAADVSEFRDIPNRDSRANYRYWGQGTQVTVSS", "class 0"],
  ["pgXX88-10 (VHH, not shown: small tags and cut ends) VHH: EVQLVESGGGLVQAGESLRLSCSASGSIRLNAVGWFRQAPVNQRLMVATITHNNSTNYADSVQGRFTIARDDAKNTVTLQMNSLKPEDTAVYMCKVYQLPVPISSHDDYWGQGTQVTVSS", "class 1"],
  ["pgXX88-5 (VHH, not shown: small tags and cut ends) VHH: QVQLVESGGGLVQAGGSLRLSCAASGGTFSTYAMGWFRQAPGKEPQFVARITWSGYTLYTEPVQGRFAISRDNAKNTVYLQMNSLKPEDTAEYFCAADSSEFRDIPNRDSRANYRYWGQGTQVTVSS", "class 0"],
  ["pgXX88-19 (VHH, not shown: small tags and cut ends) VHH: EVQLVESGGGLVQAGGSLRLSCVATGRTRSSTYIMAWFRQAPGKERDFVAAISFIGGSPVYTDSVKGRFTISRVIAENTVHLQMNDLTPEDTALYYCAATDSGPLGPSGPSKYEYWGQGTQVTVSS", "class 1"],
  ["pgXX88-16 (VHH, not shown: small tags and cut ends) VHH: QVQLVESGGGLVQAGESLNLSCSASGSIRNNAVAWFRQGPGNQRLRVAAITNTGTTDYADSVQGRFSIARDNAENTVTLQMNSLKPEDTAIYYCKIYTLPVPISSHDDTWGQGTQVTVSS", "class 1"]
]}

Next binder, please.
Is OD450 at least 0.06? Consider pgXX88-84 (VHH, not shown: small tags and cut ends) VHH: EVQLVESGGRLVQAGDSLKLSCTASGRTFSDYVMGWFRQVPGEGRLMVAVITPAGDTTEYADAVKGRFSISKDSAKRTVNLQMNNLKVDDTAVYYCAAGPSWIGMQFGTAEYWGQGTQVTVSS
class 0
